Reference source for all entries: paper PMC12268638

Molecular target: GRK2 (Homo sapiens, UniProt P25098, S670A)
Construct: Full-length WT GRK5, GRK2, or GRK6 at a final concentration of 2 μM
Sequence (P25098 whole entry S670A): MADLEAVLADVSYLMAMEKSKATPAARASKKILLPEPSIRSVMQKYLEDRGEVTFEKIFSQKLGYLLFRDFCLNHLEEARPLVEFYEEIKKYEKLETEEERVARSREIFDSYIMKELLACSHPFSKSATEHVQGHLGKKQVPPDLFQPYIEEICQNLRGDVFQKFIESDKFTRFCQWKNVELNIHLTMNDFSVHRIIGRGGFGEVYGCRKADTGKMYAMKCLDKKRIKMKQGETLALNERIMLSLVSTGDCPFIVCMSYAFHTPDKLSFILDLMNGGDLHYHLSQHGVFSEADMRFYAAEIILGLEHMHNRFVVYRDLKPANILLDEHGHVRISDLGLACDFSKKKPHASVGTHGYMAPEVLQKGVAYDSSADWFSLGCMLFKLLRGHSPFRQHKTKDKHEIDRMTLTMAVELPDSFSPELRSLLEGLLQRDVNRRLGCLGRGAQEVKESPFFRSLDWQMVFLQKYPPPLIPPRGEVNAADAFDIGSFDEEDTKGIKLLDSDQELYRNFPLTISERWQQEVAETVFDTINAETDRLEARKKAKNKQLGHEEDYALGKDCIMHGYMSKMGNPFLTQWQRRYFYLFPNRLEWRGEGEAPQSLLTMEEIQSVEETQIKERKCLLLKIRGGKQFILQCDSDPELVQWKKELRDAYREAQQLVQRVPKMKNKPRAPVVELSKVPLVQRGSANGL
Assay: GRK kinase inhibition assay ([γ-32P]-ATP phosphorylation of tubulin)
Conditions: substrate tubulin; mean ± SD
Please go through the items and note down their IC50.
Answer in mM, number only, no unit symbol.

Incoming: GET /values?readout=IC50&item= O=C([O-])CC(O)(CC(=O)[O-])C(=O)[O-].[Na+].[Na+].[Na+] [Na3Cit, sodium citrate]
Outgoing: 0.7

Incoming: GET /values?readout=IC50&item= [Cl-].[K+] [KCl]
Outgoing: 20

Incoming: GET /values?readout=IC50&item= O.O=C([O-])CC(O)(CC(=O)[O-])C(=O)[O-].[K+].[K+].[K+] [K3Cit, potassium citrate tribasic monohydrate]
Outgoing: 0.8

Incoming: GET /values?readout=IC50&item= [Cl-].[Na+] [NaCl]
Outgoing: 21

---

Biological target: GRK6 (Homo sapiens, UniProt P43250, C561S/C562S/C565S)
Construct: Full-length WT GRK5, GRK2, or GRK6 at a final concentration of 2 μM
Sequence (P43250 whole entry C561S/C562S/C565S): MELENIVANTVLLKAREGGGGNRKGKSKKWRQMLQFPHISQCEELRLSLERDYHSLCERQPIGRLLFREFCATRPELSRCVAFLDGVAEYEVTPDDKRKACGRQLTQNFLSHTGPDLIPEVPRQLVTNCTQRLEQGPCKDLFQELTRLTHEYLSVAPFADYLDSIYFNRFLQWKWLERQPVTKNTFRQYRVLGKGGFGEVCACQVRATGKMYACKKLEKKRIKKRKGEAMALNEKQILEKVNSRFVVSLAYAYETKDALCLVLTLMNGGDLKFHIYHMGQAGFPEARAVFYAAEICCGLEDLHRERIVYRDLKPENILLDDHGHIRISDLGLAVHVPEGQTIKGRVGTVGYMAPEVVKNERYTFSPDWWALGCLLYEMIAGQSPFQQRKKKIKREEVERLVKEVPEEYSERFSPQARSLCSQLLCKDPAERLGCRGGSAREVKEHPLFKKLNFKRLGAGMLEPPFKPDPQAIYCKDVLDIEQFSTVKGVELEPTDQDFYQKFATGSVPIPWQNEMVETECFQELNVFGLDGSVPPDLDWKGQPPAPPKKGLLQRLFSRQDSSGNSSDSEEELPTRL
Experiment: GRK kinase inhibition assay ([γ-32P]-ATP phosphorylation of tubulin)
Details: substrate tubulin; mean ± SD
Please go through the items and note down their pIC50.
pIC50 is a log-scale quantity: -log10 of the concentration expressed in molar.

Incoming: GET /values?readout=pIC50&item= "[Cl-].[K+]"
Outgoing: 1.85

Incoming: GET /values?readout=pIC50&item= "[Cl-].[Na+]"
Outgoing: 2.10

Incoming: GET /values?readout=pIC50&item= O.O=C([O-])CC(O)(CC(=O)[O-])C(=O)[O-].[K+].[K+].[K+] [K3Cit, potassium citrate tribasic monohydrate]
Outgoing: 3.05

Incoming: GET /values?readout=pIC50&item= O=C([O-])CC(O)(CC(=O)[O-])C(=O)[O-].[Na+].[Na+].[Na+] [Na3Cit, sodium citrate]
Outgoing: 2.89

---

Target: GRK2 (Homo sapiens, UniProt P25098, S670A)
Construct: Full-length WT GRK5, GRK2, or GRK6 at a final concentration of 2 μM; made in house; host or cells: Sf9 insect cells
Assay: GRK kinase inhibition assay ([γ-32P]-ATP phosphorylation of tubulin)
Assay type: biochemical
Conditions: substrate tubulin
Please go through the items and note down their GRK2 (Hill slope).

Incoming: GET /values?readout=GRK2 (Hill slope)&item= O=C([O-])CC(O)(CC(=O)[O-])C(=O)[O-].[Na+].[Na+].[Na+] [Na3Cit, sodium citrate]
Outgoing: −1.6

Incoming: GET /values?readout=GRK2 (Hill slope)&item= [Cl-].[Na+] [NaCl]
Outgoing: −1.2

Incoming: GET /values?readout=GRK2 (Hill slope)&item= O.O=C([O-])CC(O)(CC(=O)[O-])C(=O)[O-].[K+].[K+].[K+] [K3Cit, potassium citrate tribasic monohydrate]
Outgoing: −1.3

Incoming: GET /values?readout=GRK2 (Hill slope)&item= [Cl-].[K+] [KCl]
Outgoing: −1.6

---

Please go through the items and note down their pIC50.
Molecular target: human GRK5WT (Homo sapiens)
Construct: human GRK5WT or GRK5D311N (residues 1–590 followed by a hexahistidine tag); hexahistidine (C); made in house; host or cells: E. coli Rosetta (DE3)
Sequence (P34947 whole entry, the tested form may be a part): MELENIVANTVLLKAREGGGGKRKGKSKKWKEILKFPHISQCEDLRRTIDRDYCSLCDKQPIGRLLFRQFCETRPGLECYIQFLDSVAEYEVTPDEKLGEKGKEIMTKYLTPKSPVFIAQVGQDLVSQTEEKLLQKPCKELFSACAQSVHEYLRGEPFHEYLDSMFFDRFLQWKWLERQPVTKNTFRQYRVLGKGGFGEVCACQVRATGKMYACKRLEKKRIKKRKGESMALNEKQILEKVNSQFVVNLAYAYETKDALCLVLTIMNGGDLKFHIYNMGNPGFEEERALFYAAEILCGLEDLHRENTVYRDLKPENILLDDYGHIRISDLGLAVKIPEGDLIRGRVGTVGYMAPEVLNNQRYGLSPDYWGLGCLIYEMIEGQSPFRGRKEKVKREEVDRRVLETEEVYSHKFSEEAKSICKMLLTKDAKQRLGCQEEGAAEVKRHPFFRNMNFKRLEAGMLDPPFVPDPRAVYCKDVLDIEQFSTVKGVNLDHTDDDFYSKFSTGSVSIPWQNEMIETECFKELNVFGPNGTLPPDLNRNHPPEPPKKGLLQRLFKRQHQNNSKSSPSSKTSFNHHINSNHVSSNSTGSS
Assay: GRK kinase inhibition assay ([γ-32P]-ATP phosphorylation of tubulin or Rho*)
Format: biochemical
Settings: read-out: IC50 (no K3Cit); substrate tubulin; without K3Cit; mean and SD
pIC50 is a log-scale quantity: -log10 of the concentration expressed in molar.

Incoming: GET /values?readout=pIC50&item= Nc1ncnc2c1ncn2[C@@H]1O[C@H](COP(=O)(O)O)[C@@H](O)[C@H]1O [AMP]
Outgoing: 3.15

Incoming: GET /values?readout=pIC50&item= Nc1ncnc2c1ncn2[C@@H]1O[C@H](COP(=O)(O)OP(=O)(O)O)[C@@H](O)[C@H]1O [ADP]
Outgoing: 4.55
